Cited source for all entries: the Human Domainome abundance scans (Beltran et al. 2025)

B1: POU domain, class 3, transcription factor 4, residues 280 to 335; numbered along this chain, P49335 (parent)
chain: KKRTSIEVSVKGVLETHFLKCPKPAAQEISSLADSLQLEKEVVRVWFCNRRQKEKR

# Variants of: B1
# method.summary: abundance fitness (aPCA) (normalised: wild type 0, dead -1); higher = more abundant; growth selection in yeast, the domain comes from the species named
# settings: Homo sapiens
So basically: abundance fitness at -0.5 or higher? That is label 1. Lower than -0.5? That is label 0.

Worked cases, answers included:
change	class.assignment
Q52W	label 0
E28Y	label 1
Q37P	label 0
L32R	label 0
S5W	label 1
S35N	label 1
G12Q	label 1
R56E	label 1

Request: abundance fitness >= -0.5 for L14N ?
Result: label 0

Request: abundance fitness >= -0.5 for I6R ?
Result: label 1
